These entries and their values trace back to patent US8481542B2.

# reported pIC50; entries follow
biological target: UniProtKB P56726; test: Smo binding assay, displacement of radio-labeled smoothened agonist, filter binding format (mouse); details: examples of the present invention, exact values; read-out: Mouse Smo bdg., IC50
Sequence (P56726 33-793): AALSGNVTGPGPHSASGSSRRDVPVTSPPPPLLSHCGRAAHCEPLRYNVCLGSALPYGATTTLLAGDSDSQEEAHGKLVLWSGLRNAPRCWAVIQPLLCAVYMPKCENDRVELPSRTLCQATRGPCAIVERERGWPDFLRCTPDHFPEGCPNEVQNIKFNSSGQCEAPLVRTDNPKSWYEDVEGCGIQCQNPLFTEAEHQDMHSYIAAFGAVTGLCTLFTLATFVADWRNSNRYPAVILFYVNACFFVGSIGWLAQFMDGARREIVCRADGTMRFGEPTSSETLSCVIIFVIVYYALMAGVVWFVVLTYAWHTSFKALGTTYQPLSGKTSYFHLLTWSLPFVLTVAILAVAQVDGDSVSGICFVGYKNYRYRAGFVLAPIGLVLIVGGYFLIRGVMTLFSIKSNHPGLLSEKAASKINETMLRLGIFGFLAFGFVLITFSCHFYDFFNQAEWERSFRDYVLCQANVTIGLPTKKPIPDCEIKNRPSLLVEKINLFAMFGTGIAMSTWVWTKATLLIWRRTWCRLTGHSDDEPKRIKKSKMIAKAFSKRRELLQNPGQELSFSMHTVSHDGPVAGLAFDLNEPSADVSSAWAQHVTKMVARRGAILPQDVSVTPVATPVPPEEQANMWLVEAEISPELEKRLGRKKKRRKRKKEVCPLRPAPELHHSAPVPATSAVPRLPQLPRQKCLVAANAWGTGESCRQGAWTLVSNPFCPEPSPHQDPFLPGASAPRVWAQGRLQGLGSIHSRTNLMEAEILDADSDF
pIC50 (log units): -log10 of the concentration in mol/L.

What value of pIC50 on UniProtKB P56726 does `CC(=O)c1cnc(N2CCN(c3nnc(Cc4ccccc4)c(C)c3C)C[C@H]2C)cn1` have?
8.05

Let us now turn to Cc1c(Cc2ccccc2)nnc(N2CCN(c3cnc(C(C)(O)CO)cn3)[C@H](C)C2)c1C (some centres unmarked)
7.72

What about this compound? Cc1c(C(O)c2ccccc2)nnc(N2CCN(c3cnc(C(C)(C)O)cn3)[C@H](C)C2)c1C (some centres unmarked)
8.10

Next compound: `Cc1c(Cc2ccccc2)nnc(N2CCN(c3cnc(C(C)(C)O)cn3)CC2)c1C`
7.82

What would you report for `Cc1c(Cc2ccccn2)nnc(N2CCN(c3cnc(C(C)(C)O)cn3)[C@H](C)C2)c1C` ?
7.52
